// data source = patent US20100197714A1

molecular target: σ1-receptor (Cavia porcellus); test: Sigma-1 (Version A) radioligand binding, [3H](+)-pentazocine, guinea pig brain membranes
Sequence (Q60492 whole entry): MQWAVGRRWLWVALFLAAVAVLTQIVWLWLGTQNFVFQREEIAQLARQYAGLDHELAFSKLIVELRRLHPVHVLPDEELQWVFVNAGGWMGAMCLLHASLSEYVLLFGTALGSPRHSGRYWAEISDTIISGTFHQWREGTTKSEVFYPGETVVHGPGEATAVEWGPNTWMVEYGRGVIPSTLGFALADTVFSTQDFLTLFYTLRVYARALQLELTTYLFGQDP
pKi: −log10 of the molar value.
So basically: pKi at 8 or higher? That is rule met. Lower than 8? That is rule not met.

(Q) pKi >= 8 for CCCCN1CCC2(CC1)OC(OC)c1c2cnn1-c1ccccc1 (centres unmarked) ?
(A) rule met

(Q) pKi >= 8 for COC1OC2(CCN(Cc3ccccc3)CC2)c2cnn(-c3ccccc3)c21 (centres unmarked) ?
(A) rule met

(Q) pKi >= 8 for COC1Cc2c(cnn2-c2ccccc2)C2(CCN(CCC(C)C)CC2)O1 (centres unmarked) ?
(A) rule met

(Q) pKi >= 8 for CCCCCCCCN1CCC2(CC1)OC(OC)Cc1c2cnn1-c1ccccc1 (centres unmarked) ?
(A) rule not met

(Q) pKi >= 8 for COC1Cc2c(cnn2-c2ccccc2)C2(CCN(C(C)C)CC2)O1 (centres unmarked) ?
(A) rule not met

(Q) pKi >= 8 for COC1Cc2c(cnn2-c2ccccc2)C2(CCN(Cc3ccco3)CC2)O1 (centres unmarked) ?
(A) rule met
